target.entity: integrin α4β7 (Homo sapiens, UniProt P13612+P26010)
Construct: lymphoma cell strain RPMI-8866 of human B cells, known to express integrin α4β7; endogenous in cells
Sequence (P13612 34-1032): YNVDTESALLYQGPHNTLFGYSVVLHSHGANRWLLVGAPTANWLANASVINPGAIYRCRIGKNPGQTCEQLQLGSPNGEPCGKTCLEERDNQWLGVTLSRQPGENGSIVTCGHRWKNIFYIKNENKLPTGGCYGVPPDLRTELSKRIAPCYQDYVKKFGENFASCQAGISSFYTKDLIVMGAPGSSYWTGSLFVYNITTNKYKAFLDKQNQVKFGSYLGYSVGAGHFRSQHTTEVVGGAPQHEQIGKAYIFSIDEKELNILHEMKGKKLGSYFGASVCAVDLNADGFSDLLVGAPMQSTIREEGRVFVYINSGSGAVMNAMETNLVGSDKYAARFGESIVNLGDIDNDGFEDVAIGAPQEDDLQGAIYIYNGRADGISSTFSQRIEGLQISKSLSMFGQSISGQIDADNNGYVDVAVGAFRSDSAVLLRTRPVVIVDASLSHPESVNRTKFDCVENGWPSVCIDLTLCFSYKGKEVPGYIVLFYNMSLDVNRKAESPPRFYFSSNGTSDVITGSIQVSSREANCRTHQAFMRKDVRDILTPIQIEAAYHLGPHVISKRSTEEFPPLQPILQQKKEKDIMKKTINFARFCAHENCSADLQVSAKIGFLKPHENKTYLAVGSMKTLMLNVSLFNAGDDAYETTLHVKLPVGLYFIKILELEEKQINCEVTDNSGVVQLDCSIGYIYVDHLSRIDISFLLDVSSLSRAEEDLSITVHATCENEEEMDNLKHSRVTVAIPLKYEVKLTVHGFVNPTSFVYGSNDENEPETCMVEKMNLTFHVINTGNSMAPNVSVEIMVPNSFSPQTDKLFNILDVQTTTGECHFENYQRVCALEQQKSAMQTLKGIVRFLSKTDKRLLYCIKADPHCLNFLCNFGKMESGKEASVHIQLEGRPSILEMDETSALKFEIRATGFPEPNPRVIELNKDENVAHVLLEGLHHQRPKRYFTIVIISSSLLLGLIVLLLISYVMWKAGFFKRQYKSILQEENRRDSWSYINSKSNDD
Sequence (P26010 20-798): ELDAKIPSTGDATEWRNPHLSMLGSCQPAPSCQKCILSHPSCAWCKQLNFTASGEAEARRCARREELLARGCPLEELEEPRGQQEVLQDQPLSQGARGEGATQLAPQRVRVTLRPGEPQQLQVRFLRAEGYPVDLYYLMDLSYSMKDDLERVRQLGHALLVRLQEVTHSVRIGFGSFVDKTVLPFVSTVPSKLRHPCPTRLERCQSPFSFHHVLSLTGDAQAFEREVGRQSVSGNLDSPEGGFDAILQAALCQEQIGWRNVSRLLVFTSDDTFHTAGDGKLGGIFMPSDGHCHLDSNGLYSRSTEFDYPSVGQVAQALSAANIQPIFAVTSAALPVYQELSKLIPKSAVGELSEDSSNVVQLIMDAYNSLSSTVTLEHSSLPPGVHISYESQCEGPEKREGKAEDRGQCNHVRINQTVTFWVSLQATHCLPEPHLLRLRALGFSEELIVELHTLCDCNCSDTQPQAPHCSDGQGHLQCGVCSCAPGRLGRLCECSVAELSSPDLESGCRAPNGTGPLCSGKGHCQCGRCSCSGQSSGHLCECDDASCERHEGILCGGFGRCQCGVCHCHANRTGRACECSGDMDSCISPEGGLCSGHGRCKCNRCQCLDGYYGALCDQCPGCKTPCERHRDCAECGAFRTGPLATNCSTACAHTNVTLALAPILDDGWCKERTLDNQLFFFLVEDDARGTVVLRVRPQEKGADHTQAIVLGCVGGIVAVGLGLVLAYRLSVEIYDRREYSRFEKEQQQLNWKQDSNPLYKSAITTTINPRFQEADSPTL
run.description: VCAM antagonistic activity (VCAM-1/α4β7 binding assay), RPMI-8866 cells binding to VCAM-1
run.parameters: RPMI-8866 human B lymphoma cells binding to recombinant human VCAM-1; binding buffer with 4 mM MnCl2
result.type: IC50 (nM)
Response body: numeric value in nM, unit text excluded.

Fill in: IC50 of CCn1c(=O)n(-c2ccc(C[C@H](NC(=O)c3c(Cl)cccc3Cl)C(=O)O)cc2)c(=O)c2ccccc21 [Example 3] is ___
3.5

Fill in: IC50 of Cn1c(=O)n(-c2ccc(C[C@H](NC(=O)c3c(Cl)cccc3Cl)C(=O)O)cc2)c(=O)c2c(Cl)ccc(Cl)c21 [Example 70] is ___
3.5

Fill in: IC50 of O=C(N[C@@H](Cc1ccc(-n2c(=O)oc3c(ccc4ccccc43)c2=O)cc1)C(=O)O)c1c(Cl)cccc1Cl [Example 137] is ___
11.2

Others:
Fill in: IC50 of Cn1c(=O)n(-c2ccc(C[C@H](NC(=O)c3c(Cl)cccc3Cl)C(=O)O)cc2)c(=O)c2cc(N)ccc21 [Example 107] is ___
1.1
